# key: entry, value: normalized growth
Test: chemical genetic growth profiling, strain panel (AID 1159580);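 further: tested at 20 µM; growth read once vehicle control cultures reached saturation at 30 °C; 1 = growth at the plate median or of vehicle wells; lower values mean less growth of the strain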
Conditions: S. cerevisiae deletion strains, growth OD, locus YKL009W, strain mrt4, active compounds read low
Hit rate of the full screen: of about 5,500 compounds, about 2,000 (36%) were called active. Not shown: some 18% with an inconclusive outcome. Some of the results follow.
Enter a number only.

Some entries whose results are on file:
ClC1C(Cl)C(Cl)C(Cl)C(Cl)C1Cl (stereo unspecified) ... 0.964
Cc1cc(O)c2c(c1)C(=O)c1cc(O)cc(O)c1C2=O ... 0.753
CCCCCC/C=C\CCCCCCCc1cccc(O)c1C(=O)O ... 1.02
CN1CCN(C2=Nc3cc(Cl)ccc3Nc3ccccc32)CC1 ... 1.01
COC(=O)CC1C(C)(C)C(=O)C2CC3(O)C4=CC(=O)OC(c5ccoc5)C4(C)CCC3C1(C)C2=O (stereo unspecified) ... 0.989
O=C1c2cccc(O)c2C(=O)c2c(O)cccc21 ... 0.844
CON ... 0.978
CN1CCC[C@H]1c1cccnc1 ... 0.975
Cn1c(=O)[nH]c2ncn(C)c2c1=O ... 1.03
CC1(C)CC23C(=O)CCC(O)C2(C)CCC13 (stereo unspecified) ... 1.03

[ask] I'd like to know its normalized growth. The molecule in question is COc1cc2c(cc1OC)C(C)NCC2 (stereo unspecified)
[reply] 0.984

[ask] I'd like to know its normalized growth. The molecule in question is COc1cc(Cc2cnc(N)nc2N)cc(OC)c1OC
[reply] 1.04

[ask] I'd like to know its normalized growth. The molecule in question is O=C(O)CCC(=O)OC[C@@H](NC(=O)C(Cl)Cl)[C@H](O)c1ccc([N+](=O)[O-])cc1
[reply] 1

[ask] I'd like to know its normalized growth. The molecule in question is C=C[C@H]1CN2CC[C@H]1C[C@H]2[C@H](O)c1ccnc2ccccc12
[reply] 1.01

[ask] I'd like to know its normalized growth. The molecule in question is O=C(c1ccccc1)c1ccc2n1CCC2C(=O)O (stereo unspecified)
[reply] 0.962

[ask] I'd like to know its normalized growth. The molecule in question is Cn1cnc2c1c(=O)[nH]c(=O)n2C
[reply] 0.989

[ask] I'd like to know its normalized growth. The molecule in question is O=C(O)c1cc(O)c2c(c1)C(=O)c1cc(O)cc(O)c1C2=O
[reply] 0.967

[ask] I'd like to know its normalized growth. The molecule in question is C[C@H]1C(=O)CCC2[C@]3(C)CC[C@@]4(C)C5CC(C)(C)CC[C@]5(C)CC[C@]4(C)C3CC[C@@]21C (stereo partly specified)
[reply] 1.03

[ask] I'd like to know its normalized growth. The molecule in question is CC(=O)CCCCn1c(=O)c2c(ncn2C)n(C)c1=O
[reply] 0.994

[ask] I'd like to know its normalized growth. The molecule in question is COC1=CC23CCCN2CCc2cc4c(cc2C3C1O)OCO4 (stereo unspecified)
[reply] 1.01

[ask] I'd like to know its normalized growth. The molecule in question is COc1cc(O)c2c(c1)C(=O)c1cc(C)cc(O)c1C2=O
[reply] 0.921

---

Assay: chemical genetic growth profiling, strain panel (AID 1159580);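 further: tested at 20 µM; growth read once vehicle control cultures reached saturation at 30 °C; 1 = growth at the plate median or of vehicle wells; lower values mean less growth of the strain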
Conditions: S. cerevisiae deletion strains, growth OD, locus YKR091W, strain srl3, active compounds read low
Out of some 5,500 compounds screened, about 2,000 (36%) were called active. About 18% were inconclusive and are not listed. The list shows a part of the results.
# note: boundary value 1 maps to Not met; normalized growth below it maps to Met

Use these answered entries as a reference point.
COc1ccc(-c2c(O)c3c(OC)c4c(cc3oc2=O)OC(C)(C)C=C4)cc1 ... Met
CC1=C(C(=O)O)N2C(=O)[C@@H](NC(=O)[C@@H](N)c3ccc(O)cc3)[C@H]2SC1 ... Not met
O=C1C=C(O)c2ccccc2C1=O ... Met
Oc1cccc2cccnc12 ... Met

[ask] Confirm or reject: normalized growth of O=C1C=CC(=O)c2ccccc21 lies strictly below 1
[reply] Met

Entry source: PubChem BioAssay AID1159580
